Each entry below carries its recorded pIC50.
# targetOrTestSystem: DR2a (DRB5*01:01) (Homo sapiens, UniProt P01903+Q30154)
# assayName: fluorescence polarization competition binding assay, DR2a
# testContext: fluorescence polarization competition; […]; mean of two independent experiments; read-out: Mean IC50, DR2a (DRB5*01:01)
pIC50: −log10 of the molar value.
measureName: pIC50

{"compound": "CC[C@H](C)[C@H](NC(=O)[C@@H](NC(=O)CNC(=O)[C@H](CC(N)=O)NC(=O)[C@H](CCC(=O)O)NC(=O)[C@H](CC(N)=O)NC(=O)[C@H](Cc1ccc(O)cc1)NC(=O)[C@H](CCCCN)NC(=O)[C@H](CC(C)C)NC(=O)[C@H](CC(C)C)NC(=O)[C@H](Cc1ccccc1)NC(=O)[C@@H](NC(=O)[C@H](CCCNC(=N)N)NC(=O)[C@@H]1CCCN1C(=O)[C@@H](N)CCC(N)=O)[C@@H](C)O)[C@@H](C)O)C(=O)N[C@H](C(=O)O)[C@@H](C)O", "recordedMeasurement": 4.18}
{"compound": "CC[C@H](C)[C@H](NC(=O)[C@@H](NC(=O)[C@H](CC(N)=O)NC(=O)[C@H](CO)NC(=O)[C@H](CCCCN)NC(=O)[C@H](CCC(=O)O)NC(=O)[C@@H](NC(=O)[C@H](CO)NC(=O)[C@H](C)NC(=O)[C@H](Cc1ccccc1)NC(=O)[C@H](Cc1ccc(O)cc1)NC(=O)[C@@H](NC(=O)CNC(=O)[C@H](CC(=O)O)NC(=O)[C@H](CC(N)=O)NC(=O)[C@@H](N)Cc1ccccc1)C(C)C)[C@@H](C)O)[C@@H](C)CC)C(=O)O", "recordedMeasurement": 4.38}
{"compound": "CC[C@H](C)[C@H](NC(=O)[C@H](CC(C)C)NC(=O)[C@H](CCC(N)=O)NC(=O)[C@H](CCC(N)=O)NC(=O)[C@@H](NC(=O)[C@@H](NC(=O)[C@H](Cc1ccc(O)cc1)NC(=O)[C@@H](NC(=O)[C@H](CCC(N)=O)NC(=O)[C@H](CC(C)C)NC(=O)[C@H](CO)NC(=O)[C@H](CCC(N)=O)NC(=O)[C@@H](N)CC(C)C)[C@@H](C)O)C(C)C)[C@@H](C)O)C(=O)N[C@@H](CCCNC(=N)N)C(=O)N[C@@H](C)C(=O)O [Peptide P11.CoV2]", "recordedMeasurement": 5.66}
